- System: wild-type (AB) zebrafish (Danio rerio)
- Assay Name: Maximum tolerated concentration (MTC) determination in larval zebrafish
- Assay type: in vivo
- Cond: after 24 h exposure; 5 dpf larvae
MTC (maximum tolerated concentration) values by entry
Value Type: MTC (maximum tolerated concentration) (µM)

> print(dat)
                                    compound  value.unit  censoring.operator  observed.value
 1      COc1ccc(CN2C(=O)C(=O)c3ccccc32)cc1Br          µM                   =             100
 2  CCN(CC)CCOc1ccc(CN2C(=O)C(=O)c3ccccc32)cc1          µM                   =              10
 3        CCCCc1oc2ccccc2c1C(=O)c1ccc(OC)cc1          µM                   =               3
 4  COc1cc(CN2C(=O)C(=O)c3ccccc32)cc(OC)c1OC          µM                   =              30
 5  CCCCc1oc2ccccc2c1C(=O)c1cc(I)c(OCCN(CC)CC)c(I)c1 [Amiodarone, reference compound]          µM                   =              10
 6  COc1c(Br)cc(CN2C(=O)C(=O)c3ccccc32)cc1Br          µM                   >              30
 7  CCCCc1oc2ccc(NS(C)(=O)=O)cc2c1C(=O)c1ccc(OCCCN(CCCC)CCCC)cc1 [Dronedarone, reference compound]          µM                   =              10
 8      COc1ccc(CN2C(=O)C(=O)c3ccccc32)cc1Cl          µM                   =              10
 9  CCN(CC)CCOc1c(Br)cc(CN2C(=O)C(=O)c3ccccc32)cc1Br.Cl          µM                   =              10
10   O=C1C(=O)N(Cc2cc(F)c(F)c(F)c2)c2ccccc21          µM                   =              10
11  CCCCc1oc2ccccc2c1C(=O)c1cc(I)c(OCCN(CC)C(C)=O)c(I)c1          µM                   =              10
12  CCCCc1oc2ccccc2c1C(=O)c1cc(I)c(OCCNCC)c(I)c1.Cl          µM                   =               3
13  CCCCc1oc2ccccc2c1C(=O)c1cc(I)c(O)c(I)c1 [Compound 3, reference compound]          µM                   =               3
14    COc1c(F)cc(CN2C(=O)C(=O)c3ccccc32)cc1F          µM                   =              30
15  CCCCc1oc2ccccc2c1C(=O)c1ccc(OCCN(CC)CC)cc1          µM                   =               3
16  CCCCc1oc2ccccc2c1C(=O)c1cc(I)c(OCC[N+](CC)(CC)CC)c(I)c1 [Compound 2, N-ethyl amiodarone, reference compound]          µM                   =               1
17  CCCCc1oc2ccccc2c1C(=O)c1ccc(O)cc1 [Compound 4, reference compound]          µM                   =             0.3
18  CCCCc1oc2ccccc2c1C(=O)c1cc(I)c(OC)c(I)c1          µM                   =              30

The measurements presented in this section are drawn from paper PMC11213934.
